Listed next: entries and their corresponding Maximum % inhibition.
# study-system: T1, Human PCSK9 Alexa Fluor 647 (human, UniProt Q8NBP7 31-692, limits assumed, Alexa Fluor 647 label (site not stated))
# T1 construct: Labelled tracer of the TR-FRET assay, 16 nM stock; also called proprotein convertase subtilisin/kexin type 9
# T1 sequence (Q8NBP7 31-692 limits assumed): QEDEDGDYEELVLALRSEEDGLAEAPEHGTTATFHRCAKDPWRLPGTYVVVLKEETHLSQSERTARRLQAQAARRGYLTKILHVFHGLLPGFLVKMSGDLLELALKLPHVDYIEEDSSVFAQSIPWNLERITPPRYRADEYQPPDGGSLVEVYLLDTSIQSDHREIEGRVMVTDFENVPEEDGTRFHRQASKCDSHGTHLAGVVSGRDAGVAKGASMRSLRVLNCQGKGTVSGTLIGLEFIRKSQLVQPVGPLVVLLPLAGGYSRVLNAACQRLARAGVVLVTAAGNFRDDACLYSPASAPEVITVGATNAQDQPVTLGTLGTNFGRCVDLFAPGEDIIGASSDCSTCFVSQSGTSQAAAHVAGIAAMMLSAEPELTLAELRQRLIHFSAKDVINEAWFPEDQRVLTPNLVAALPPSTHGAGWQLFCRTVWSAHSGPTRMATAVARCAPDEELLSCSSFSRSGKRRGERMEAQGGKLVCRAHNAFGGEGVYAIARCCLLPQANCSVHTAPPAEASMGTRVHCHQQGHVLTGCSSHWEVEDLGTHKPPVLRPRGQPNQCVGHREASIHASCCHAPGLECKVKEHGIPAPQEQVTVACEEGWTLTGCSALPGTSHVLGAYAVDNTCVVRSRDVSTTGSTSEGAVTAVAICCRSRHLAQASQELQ
# method-summary: TR-FRET competition: PCSK9-Alexa Fluor 647 vs LDLR ECD-Eu kryptate
Bridge positions count the residues as written; N and C are the ends. Square brackets hold non-standard residues; d marks the D form. Bip = N[C@@H](Cc1ccc(-c2ccccc2)cc1)C(=O)O; Phe(4-Cl) = N[C@@H](Cc1ccc(Cl)cc1)C(=O)O; NMeF = CN[C@@H](Cc1ccccc1)C(=O)O; NMeE = CN[C@@H](CCC(=O)O)C(=O)O; NMeA = CN[C@@H](C)C(=O)O
// return numeric value only (unit: %, not printed)

binder: {CH2CO}-FVSTT[Bip][NMeA][Bip][NMeA]DRPC-NH2 (thioether N-13; SMILES CC(C)[C@@H]1NC(=O)[C@H](Cc2ccccc2)NC(=O)CSC[C@@H](C(N)=O)NC(=O)[C@@H]2CCCN2C(=O)[C@H](CCCNC(=N)N)NC(=O)[C@H](CC(=O)O)NC(=O)[C@H](C)N(C)C(=O)[C@H](Cc2ccc(-c3ccccc3)cc2)NC(=O)[C@H](C)N(C)C(=O)[C@H](Cc2ccc(-c3ccccc3)cc2)NC(=O)[C@H]([C@@H](C)O)NC(=O)[C@H]([C@@H](C)O)NC(=O)[C@H](CO)NC1=O, also called 2-4; Ex. No. 2-4) [Ac*-F-V-S-T-T-B-(N-Me)A-B-(N-Me)A-D-R-P-C*-NH2]
unit-descriptor: %
Maximum % inhibition: 28

binder: FVSTTXFXAESPCG (not fully specified; N-terminal acetyl (Ac*) joined by a sulfide bond to the side chain of Cys13 (cyclic); 6: L-Bip; 7: L-(N-Me)Phe; 8: L-Bip; 9: L-(N-Me)Ala; C-terminal amide (NH2), also called 1-13; Ex. No. 1-13) [Ac*-F-V-S-T-T-B-(N-Me)F-B-(N-Me)A-E-S-P-C*-G-NH2]
unit-descriptor: %
Maximum % inhibition: 86

binder: {CH2CO}-FVPTTA[NMeF][Bip][NMeA]EAPCG-NH2 (thioether N-13; not fully specified, The three-letter form of the same entry prints L-Arg at position 11 where the one-letter form prints A; also called 1-21; Ex. No. 1-21) [Ac*-F-V-P-T-T-A-(N-Me)F-B-(N-Me)A-E-A-P-C*-G-NH2]
unit-descriptor: %
Maximum % inhibition: 81

binder: FVSTTSFXAESPCG (not fully specified; N-terminal acetyl (Ac*) joined by a sulfide bond to the side chain of Cys13 (cyclic); 7: L-(N-Me)Phe; 8: L-Bip; 9: L-(N-Me)Ala; C-terminal amide (NH2), also called 1-12; Ex. No. 1-12) [Ac*-F-V-S-T-T-S-(N-Me)F-B-(N-Me)A-E-S-P-C*-G-NH2]
unit-descriptor: %
Maximum % inhibition: 87

binder: {CH2CO}-FVNTTF[NMeA][Bip][NMeA]KAPCG-NH2 (thioether N-13; SMILES CC(C)[C@@H]1NC(=O)[C@H](Cc2ccccc2)NC(=O)CSC[C@@H](C(=O)NCC(N)=O)NC(=O)[C@@H]2CCCN2C(=O)[C@H](C)NC(=O)[C@H](CCCCN)NC(=O)[C@H](C)N(C)C(=O)[C@H](Cc2ccc(-c3ccccc3)cc2)NC(=O)[C@H](C)N(C)C(=O)[C@H](Cc2ccccc2)NC(=O)[C@H]([C@@H](C)O)NC(=O)[C@H]([C@@H](C)O)NC(=O)[C@H](CC(N)=O)NC1=O, also called 1-23; Ex. No. 1-23) [Ac*-F-V-N-T-T-F-(N-Me)A-B-(N-Me)A-K-A-P-C*-G-NH2]
unit-descriptor: %
Maximum % inhibition: 36

Requested field: Maximum % inhibition. Item: {CH2CO}-FVATTF[NMeA][Phe(4-Cl)][NMeA]NAPC-NH2 (thioether N-13; SMILES CC(C)[C@@H]1NC(=O)[C@H](Cc2ccccc2)NC(=O)CSC[C@@H](C(N)=O)NC(=O)[C@@H]2CCCN2C(=O)[C@H](C)NC(=O)[C@H](CC(N)=O)NC(=O)[C@H](C)N(C)C(=O)[C@H](Cc2ccc(Cl)cc2)NC(=O)[C@H](C)N(C)C(=O)[C@H](Cc2ccccc2)NC(=O)[C@H]([C@@H](C)O)NC(=O)[C@H]([C@@H](C)O)NC(=O)[C@H](C)NC1=O, also called 2-5; Ex. No. 2-5) [Ac*-F-V-A-T-T-F-(N-Me)A-(p-Cl)F-(N-Me)A-N-A-P-C*-NH2]
46

Which value of Maximum % inhibition has been reported for {CH2CO}-FVDTTS[NMeF][Bip][NMeA]ESPCG-NH2 (thioether N-13; SMILES CC(C)[C@@H]1NC(=O)[C@H](Cc2ccccc2)NC(=O)CSC[C@@H](C(=O)NCC(N)=O)NC(=O)[C@@H]2CCCN2C(=O)[C@H](CO)NC(=O)[C@H](CCC(=O)O)NC(=O)[C@H](C)N(C)C(=O)[C@H](Cc2ccc(-c3ccccc3)cc2)NC(=O)[C@H](Cc2ccccc2)N(C)C(=O)[C@H](CO)NC(=O)[C@H]([C@@H](C)O)NC(=O)[C@H]([C@@H](C)O)NC(=O)[C@H](CC(=O)O)NC1=O, also called 1-5; Ex. No. 1-5) [Ac*-F-V-D-T-T-S-(N-Me)F-B-(N-Me)A-E-S-P-C*-G-NH2] in the records?
95

Returns the measured Maximum % inhibition for the input binder. Input: {CH2CO}-FVDSTY[NMeA][Bip][NMeA]NHPCG-NH2 (thioether N-13; SMILES CC(C)[C@@H]1NC(=O)[C@H](Cc2ccccc2)NC(=O)CSC[C@@H](C(=O)NCC(N)=O)NC(=O)[C@@H]2CCCN2C(=O)[C@H](Cc2c[nH]cn2)NC(=O)[C@H](CC(N)=O)NC(=O)[C@H](C)N(C)C(=O)[C@H](Cc2ccc(-c3ccccc3)cc2)NC(=O)[C@H](C)N(C)C(=O)[C@H](Cc2ccc(O)cc2)NC(=O)[C@H]([C@@H](C)O)NC(=O)[C@H](CO)NC(=O)[C@H](CC(=O)O)NC1=O, also called 1-4; Ex. No. 1-4) [Ac*-F-V-D-S-T-Y-(N-Me)A-B-(N-Me)A-N-H-P-C*-G-NH2]
60

What value of Maximum % inhibition has been reported for the following binder? FVSTTXAXAESPCG (not fully specified; N-terminal acetyl (Ac*) joined by a sulfide bond to the side chain of Cys13 (cyclic); 6: L-Bip; 7: L-(N-Me)Ala; 8: L-Bip; 9: L-(N-Me)Ala; C-terminal amide (NH2), also called 1-25; Ex. No. 1-25) [Ac*-F-V-S-T-T-B-(N-Me)A-B-(N-Me)A-E-S-P-C*-G-NH2]
68

Value lookup for Maximum % inhibition; key = {CH2CO}-FVDTTS[NMeF][Bip][NMeE]NSPCG-NH2 (thioether N-13; SMILES CC(C)[C@@H]1NC(=O)[C@H](Cc2ccccc2)NC(=O)CSC[C@@H](C(=O)NCC(N)=O)NC(=O)[C@@H]2CCCN2C(=O)[C@H](CO)NC(=O)[C@H](CC(N)=O)NC(=O)[C@H](CCC(=O)O)N(C)C(=O)[C@H](Cc2ccc(-c3ccccc3)cc2)NC(=O)[C@H](Cc2ccccc2)N(C)C(=O)[C@H](CO)NC(=O)[C@H]([C@@H](C)O)NC(=O)[C@H]([C@@H](C)O)NC(=O)[C@H](CC(=O)O)NC1=O, also called 1-1; Ex. No. 1-1) [Ac*-F-V-D-T-T-S-(N-Me)F-B-(N-Me)E-N-S-P-C*-G-NH2]
65
